Data origin: patent US20260174875A1

Molecular target: T1, human GIP receptor (human, UniProt P48546 22-466)
T1 sequence (looked up): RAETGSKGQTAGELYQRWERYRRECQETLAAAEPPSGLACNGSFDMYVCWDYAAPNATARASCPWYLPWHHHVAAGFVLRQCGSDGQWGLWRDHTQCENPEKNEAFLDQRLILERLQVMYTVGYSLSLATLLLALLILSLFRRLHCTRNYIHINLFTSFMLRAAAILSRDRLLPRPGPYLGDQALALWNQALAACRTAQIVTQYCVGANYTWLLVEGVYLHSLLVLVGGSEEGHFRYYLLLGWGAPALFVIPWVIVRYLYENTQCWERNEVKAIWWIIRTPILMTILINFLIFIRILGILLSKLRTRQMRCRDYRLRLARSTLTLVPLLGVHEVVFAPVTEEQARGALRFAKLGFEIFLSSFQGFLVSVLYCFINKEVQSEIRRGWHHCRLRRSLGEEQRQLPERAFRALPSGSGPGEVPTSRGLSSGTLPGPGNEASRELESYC
Assay: cell-based or functional assay
Numbered stars: 1 amine (or outer) side, 2 acyl side, 3 side chain; on linkers, the order of the positions; unused ones are H or OH. Square brackets hold non-standard residues; d marks the D form. Side chains are listed from the residue outwards. * marks the point of attachment. Chem. 22 = C20 diacid gamma-Glu, O=C(O)CCCCCCCCCCCCCCCCCCC(=O)N[C@@H](CCC(=O)*)C(=O)O; C18 diacid = O=C(O)CCCCCCCCCCCCCCCCC(=O)*; C16 diacid = O=C(O)CCCCCCCCCCCCCCC(=O)*; γGlu = O=C(O)[C@H](CCC(=O)[*:2])N[*:1]; Chem. 28 = not defined here; Chem. 29 = not defined here; AEEA = NCCOCCOCC(=O)O; Aib = CC(C)(N)C(=O)O
Kind request: treat 4 pM as inclusive, so hGIPR Potency, no HSA, EC50 [pM] at 4 pM or higher is 1, anything lower is 0.

Consider the following illustrative entries.
Compound 36 (reading uncertain) peptide: H[Aib]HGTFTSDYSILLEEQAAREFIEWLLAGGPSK(Chem. 28)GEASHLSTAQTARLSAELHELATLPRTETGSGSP-NH2 = 0
Compound 114 (peptide) peptide: Y[Aib]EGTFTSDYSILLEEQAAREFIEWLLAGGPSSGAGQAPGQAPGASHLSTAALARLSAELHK([AEEA-AEEA-γGlu-C18 diacid])LATLPRTETGSGSP-NH2 = 1
Compound 88 (peptide) peptide: H[Aib]HGTFTSDYSILLEEQAAREFIEWLLAGGPSSGEASHLSTAALGRLSAELHK([AEEA-AEEA-γGlu-C18 diacid])LATLPRTETGSGSP-NH2 = 1

# bool: hGIPR Potency, no HSA, EC50 [pM] of Compound 45 (reading uncertain) peptide: H[Aib]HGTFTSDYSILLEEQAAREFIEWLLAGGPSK(Chem. 28)GALAQTLGTNEASHLSTAQTQRLSAELHELATLPRTETGSGSP-NH2 >= 4 pM
0

# bool: hGIPR Potency, no HSA, EC50 [pM] of Compound 22 (reading uncertain) peptide: H[Aib]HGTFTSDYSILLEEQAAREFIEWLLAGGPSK(Chem. 28)GAPPPSLAQTLAQTLASELSTAALGRLSAELHELATLPRTETGSGSP-NH2 >= 4 pM
1

# bool: hGIPR Potency, no HSA, EC50 [pM] of Compound 13 (peptide) peptide: Y[Aib]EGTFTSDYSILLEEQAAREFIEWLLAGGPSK([AEEA-AEEA-γGlu-C18 diacid])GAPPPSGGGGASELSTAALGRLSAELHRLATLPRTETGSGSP-NH2 >= 4 pM
0

# bool: hGIPR Potency, no HSA, EC50 [pM] of Compound 69 (peptide) peptide: H[Aib]HGTFTSDYSILLEEQAAREFIEWLLAGGPSRGEASHLSTAQTQRLSAELHK([AEEA-AEEA-γGlu-C18 diacid])LATLPRTETGSGSP-NH2 >= 4 pM
0

# bool: hGIPR Potency, no HSA, EC50 [pM] of Compound 99 (not fully specified (residue 62)) peptide: Y[Aib]EGTFTSDYSILLEEQAAREFIEWLLAGGPSSGALQAPGQAPLASHLSTAQTQRLSAELHKLATLPRTETGSGSP-NH2 >= 4 pM
0

# bool: hGIPR Potency, no HSA, EC50 [pM] of Compound 55 (reading uncertain) peptide: Y[Aib]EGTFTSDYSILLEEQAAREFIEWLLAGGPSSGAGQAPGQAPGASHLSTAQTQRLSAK(Chem. 28)LHRLATLPRTETGSGSP-NH2 >= 4 pM
0

# bool: hGIPR Potency, no HSA, EC50 [pM] of Compound 41 (peptide) peptide: Y[Aib]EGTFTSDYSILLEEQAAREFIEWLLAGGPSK(Chem. 22)GAPPPSGGGEASELSTAALGRLSAELHRLADLPRTETGSGSP-NH2 >= 4 pM
1

# bool: hGIPR Potency, no HSA, EC50 [pM] of Compound 107 (reading uncertain) peptide: H[Aib]HGTFTSDYSILLEEQAAREFIEWLLAGGPSSGALQAPGQAPGASHLSTAQTARLSAELHRLATLPK(Chem. 28)TETGSGSP-NH2 >= 4 pM
0

# bool: hGIPR Potency, no HSA, EC50 [pM] of Compound 106 (reading uncertain) peptide: H[Aib]HGTFTSDYSILLEEQAAREFIEWLLAGGPSSGALQAPGQAPGASHLSTAQTARLSAELHRLK(Chem. 28)TLPRTETGSGSP-NH2 >= 4 pM
1

# bool: hGIPR Potency, no HSA, EC50 [pM] of Compound 59 (peptide) peptide: Y[Aib]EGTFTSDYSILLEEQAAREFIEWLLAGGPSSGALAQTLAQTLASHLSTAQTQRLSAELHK([AEEA-AEEA-γGlu-C16 diacid])LATLPRTETGSGSP-NH2 >= 4 pM
1

# bool: hGIPR Potency, no HSA, EC50 [pM] of Compound 11 (reading uncertain) peptide: Y[Aib]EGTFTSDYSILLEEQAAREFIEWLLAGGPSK(Chem. 29)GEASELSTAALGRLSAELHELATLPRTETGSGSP-NH2 >= 4 pM
0
